Ref: PubChem BioAssay (NCI)

tested on: OVCAR-5 ovarian; test: NCI tumour cell line growth inhibition, 48 h
Measure: GI50

• NCCCNCCCNc1nc2ccccc2c2[nH]c3ccccc3c12 = 215 nM
• O=C(/C=C/c1cccnc1)/C=C/c1cccnc1 = 2170 nM
• N=C(N)c1ccc(-c2ccc(-c3ccccc3)o2)cc1 = 2110 nM
• CCOC(=O)/C(=C/c1c(-c2ccccc2)[nH]c2ccccc12)C(=O)c1ccc(Cl)cc1 = > 100000 nM
• COc1cccc(C2C3=C(COC3=O)N(CCO)c3cc4c(cc32)CCC4)c1 (centres undefined) = 344 nM
• CC/C(=C(/CC)c1ccc(OP(=O)([O-])[O-])cc1)c1ccc(OP(=O)([O-])[O-])cc1.N.N.N.N.[Pt+4].[Pt+4] = 6980 nM
• Cn1cc(-c2ccc3c(c2)ncn3-c2ccc(CC(=O)Nc3cc(C(C)(C)C)on3)cc2)cn1 = 1350 nM
• CCN(CC)c1ccc(/C=C/C2=[N+](C)c3ccccc3C2(C)C)cc1 = 1010 nM
• Cc1nc(N=C(N)N)nc2ccc3ccccc3c12 = 2290 nM
